# Test system: LXRb:RXRa (NR concentration 270 nM, RXRa partner concentration 90 nM)
# Method: PBM binding z-score (relative to random genomic background probes); higher = stronger binding; sequences stand for … in GC…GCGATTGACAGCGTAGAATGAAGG
Assign Fulfilled to entries whose PBM binding z-score meets or exceeds 0.7; assign Not fulfilled to the rest.

- Sequence data: "CCCACTGGGGCAGAAAGGTTACCATACCATCCGG"
  Category label: "Not fulfilled"
- Sequence data: "GGAACGAGGGGATTCGAGTTGATAGCATGGCGAT"
  Category label: "Not fulfilled"
- Sequence data: "ATATGTAGGTTACATCCGGGTTATTCAGGCTATG"
  Category label: "Fulfilled"
- Sequence data: "CCTACTGGGCCAGCAGGTCATTGATATCAACGTT"
  Category label: "Fulfilled"
- Sequence data: "TCTTGTAGATCAAGCAGGTTAAGAGAGCCTGAGT"
  Category label: "Not fulfilled"

Problem: Entry TCGAGTAGGTTACCAATCGGGCATTCAGCTTTCT : is its PBM binding z-score no less than 0.7?
Result: Not fulfilled

----------
# Test system: PXR:RXRa (NR concentration 270 nM, RXRa partner concentration 90 nM)
# Method: PBM binding z-score (relative to random genomic background probes); higher = stronger binding; sequences stand for … in GC…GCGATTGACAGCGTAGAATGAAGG
Assign classes using reported PBM binding z-score values and the ranges lower band: < 0.5; central band: ≥ 0.5 and < 3; upper band: ≥ 3, please.

Illustrative cases are given below, each with its answer.
- Sequence data: "CAAACTAGGTCACGGTCAAAGTCGGTTTGTGCCA"
  Category label: "central band"
- Sequence data: "CCTTACGGGTCACGAGGGTATAGCACGACGAGCG"
  Category label: "upper band"
- Sequence data: "ATCGAAAGGTCGTGAGGTGAGTATACAGAAAGGC"
  Category label: "upper band"
- Sequence data: "GCTTGTAGATCAAGGTTAAGAACGACTAAGCTAA"
  Category label: "lower band"
- Sequence data: "AGAATGAGGTTATTAAGATGAGGGAATTGCGGTC"
  Category label: "central band"

Proceed to the following item.
Problem: Band for the recorded PBM binding z-score of ATAATGAGGTTATTAAGATCAGGGAATTGCGGTC ?
Result: central band

----------
# System: RARb:RXRa (NR concentration 270 nM, RXRa partner concentration 90 nM)
# Method: PBM binding z-score (relative to random genomic background probes); higher = stronger binding; sequences stand for … in GC…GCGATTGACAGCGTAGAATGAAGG
Catalogue of sequences with associated PBM binding z-score
# print the numeric value only

Before answering, review these 5 worked examples.
- Sequence data: "TCTTGTAGATCAAGCAGGTTAAGAATGCCTGAGT"
  Meas value: 0.0521
- Sequence data: "TCTATTAGTTGAAGGGCAATCGACGAGTCCGTTT"
  Meas value: 1.24
- Sequence data: "TGTGAAAGTTCAAAGGTAACGTAAGTATCCACAC"
  Meas value: 4.74
- Sequence data: "TCAGACAGGTGAAGGTAACTCAGGTACGCAGTCG"
  Meas value: 1.18
- Sequence data: "GCTTGCAGGCCATTTGGGTCACTCAATGACGGGC"
  Meas value: 1.76

Problem: Any idea what its PBM binding z-score is? The sequence is CCTCGGAGGACAGGAGGTCAGAGCTGTCCGCTTT
Result: 2.82

Problem: Any idea what its PBM binding z-score is? The sequence is TCATATACGTAAACAGGTGAAAGTCCGTAAGTTA
Result: 0.855

Problem: Any idea what its PBM binding z-score is? The sequence is GCGACTGGGGCATCAGCAGGTTACCCTAACTTAA
Result: 0.794

Problem: Any idea what its PBM binding z-score is? The sequence is TCTAGTTGGTCAAAGGGCACACACTCGAAATGCG
Result: 2.6

Problem: Any idea what its PBM binding z-score is? The sequence is ACTAGCAGGCCAAGGGTCACTGAAGATTAGTCCG
Result: 3.76

Problem: Any idea what its PBM binding z-score is? The sequence is CCGACCGGGGCATAAGGTTACCATAAGCCAGCCC
Result: 1.8

Problem: Any idea what its PBM binding z-score is? The sequence is CAGCCTAGGTCAGGGCCAGTGTAGGAGGAACGTT
Result: 3.5

Problem: Any idea what its PBM binding z-score is? The sequence is ATTGAAAGGTCGAAGGTGAGTATACCCACCCGAA
Result: 3.83

Problem: Any idea what its PBM binding z-score is? The sequence is ATATGTAGGTTAACGGTCATTCAGGTTGGTTCGC
Result: 2.41

Problem: Any idea what its PBM binding z-score is? The sequence is ATATGTAGGTTAGCTGGGGTCAGTCAGACTAGGC
Result: 2.88

Problem: Any idea what its PBM binding z-score is? The sequence is TCGAGTAGGTTAGGGGCAATCAGAATGGCGTCGA
Result: 1.19

Problem: Any idea what its PBM binding z-score is? The sequence is CCTATTAGTTGACCATAAAGGCAACCGAAGCTCG
Result: 0.404

Problem: Any idea what its PBM binding z-score is? The sequence is CGTCAAAGTTCAAGGGAACGTAACAGAAAGCAGC
Result: 5.11

Problem: Any idea what its PBM binding z-score is? The sequence is GATACAGGGACAAGGCCAGAGTACGCGTATTGAT
Result: 0.943

Problem: Any idea what its PBM binding z-score is? The sequence is TGTCAAAGTGCAAAGGTAACGTAAGTATCCACAC
Result: 2.38
